Target entity: human natriuretic peptide receptor B (NPR-B) (human) (UniProt P20594)
Sequence (P20594 23-1047): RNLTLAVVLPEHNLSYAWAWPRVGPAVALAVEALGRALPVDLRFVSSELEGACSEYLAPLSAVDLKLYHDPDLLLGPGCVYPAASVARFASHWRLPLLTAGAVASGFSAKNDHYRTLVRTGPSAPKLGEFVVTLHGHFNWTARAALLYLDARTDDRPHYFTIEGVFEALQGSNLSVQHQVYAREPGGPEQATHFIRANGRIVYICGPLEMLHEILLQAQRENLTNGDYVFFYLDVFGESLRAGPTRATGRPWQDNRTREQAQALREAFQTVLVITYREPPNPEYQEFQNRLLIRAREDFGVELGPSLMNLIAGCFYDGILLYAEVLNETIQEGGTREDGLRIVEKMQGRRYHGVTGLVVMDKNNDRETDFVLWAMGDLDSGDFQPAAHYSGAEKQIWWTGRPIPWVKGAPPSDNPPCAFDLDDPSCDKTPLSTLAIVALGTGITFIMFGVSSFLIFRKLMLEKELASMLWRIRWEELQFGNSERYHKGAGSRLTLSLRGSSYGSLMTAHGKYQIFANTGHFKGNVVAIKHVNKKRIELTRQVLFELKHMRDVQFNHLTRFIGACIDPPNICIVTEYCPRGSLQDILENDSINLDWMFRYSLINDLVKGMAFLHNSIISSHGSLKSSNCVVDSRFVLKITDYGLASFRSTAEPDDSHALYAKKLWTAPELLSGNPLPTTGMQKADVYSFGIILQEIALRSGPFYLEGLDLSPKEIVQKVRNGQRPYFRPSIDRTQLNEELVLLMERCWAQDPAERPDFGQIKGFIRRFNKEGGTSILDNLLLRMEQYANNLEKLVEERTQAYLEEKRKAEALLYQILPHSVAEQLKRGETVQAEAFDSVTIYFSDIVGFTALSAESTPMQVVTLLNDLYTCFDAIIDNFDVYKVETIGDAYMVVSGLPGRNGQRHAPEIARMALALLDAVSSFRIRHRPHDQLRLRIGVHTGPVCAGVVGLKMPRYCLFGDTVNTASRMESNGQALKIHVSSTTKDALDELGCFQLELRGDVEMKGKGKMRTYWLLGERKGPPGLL
Assay text: cell-based or functional assay
Ends that are not written are not given here.
Measure name: Approximate fold gain in selectivity versus CDNP (NPR-B over NPR-A) (fold)
Output spec: scalar in fold, unitless text.

{"Binder": "GLSKGCFGLKLDRIGSMSGLGCPSLAAPRPNAPSTSA (ends and bridges not checked; cysteine pairing not given here) [CDNP-A4A5]", "Numeric result": 0.98}
{"Binder": "GLSKGCFGLKLDRIGSMSGLGCPSLRAPRPNAPSTSA (ends and bridges not checked; cysteine pairing not given here) [CDNP-A5]", "Numeric result": 5.54}

# Approximate fold gain in selectivity versus CDNP (NPR-B over NPR-A) lookup, item GLSKGCFGLKLDRIGSMSGLGCPSSRAPRPNAPSTSA (ends and bridges not checked; cysteine pairing not given here) [CDNP-S3A5]
1.23

For GLSKGCFGLKLDRIGSMSGLGCPSSADPRPNAPSTSA (ends and bridges not checked; cysteine pairing not given here) [CDNP-S3A4] then?
28.5
